The reported measurements were obtained from patent US10385085B2.

Test: Approximate solvent solubility screen (aliquot addition)
Format: physicochemical
Conditions: 40 °C, organic solvent or mixture, thermodynamic from solid; solvent: Ethyl acetate
parameter.measured: solubility

Reported solubility ( CC(=O)N[C@H]1[C@H]([C@H](O)[C@H](O)CO)OC(O)(C(=O)O)C[C@@H]1O (stereo partly shown) [Sialic acid, N-acetylneuraminic acid] ) = < 5800 µg/mL

###

Assay: Approximate solvent solubility screen (aliquot addition)
Format: physicochemical
Conditions: 40 °C, organic solvent or mixture, thermodynamic from solid; solvent: Methanol
parameter.measured: solubility

Reported solubility ( CC(=O)N[C@H]1[C@H]([C@H](O)[C@H](O)CO)OC(O)(C(=O)O)C[C@@H]1O (stereo partly shown) [Sialic acid, N-acetylneuraminic acid] ) = < 5200 µg/mL

###

Experiment: Approximate solvent solubility screen (aliquot addition)
Assay type: physicochemical
Details: 40 °C, organic solvent or mixture, thermodynamic from solid; solvent: tert-Butylmethyl ether
parameter.measured: solubility

Reported solubility ( CC(=O)N[C@H]1[C@H]([C@H](O)[C@H](O)CO)OC(O)(C(=O)O)C[C@@H]1O (stereo partly shown) [Sialic acid, N-acetylneuraminic acid] ) = < 4600 µg/mL

###

Test: PLM (morphology) of the solid forms
Format: physicochemical
Conditions: particle shape
parameter.measured: PLM (morphology)

CC(=O)N[C@H]1[C@H]([C@H](O)[C@H](O)CO)OC(O)(C(=O)O)C[C@@H]1O (stereo partly shown) [Form 3, N-acetylneuraminic acid] : Small needles
CC(=O)N[C@H]1[C@H]([C@H](O)[C@H](O)CO)OC(O)(C(=O)O)C[C@@H]1O (stereo partly shown) [Form 2, N-acetylneuraminic acid] : Small needles
CC(=O)N[C@H]1[C@H]([C@H](O)[C@H](O)CO)OC(O)(C(=O)O)C[C@@H]1O (stereo partly shown) [Form 1, N-acetylneuraminic acid] : Small needles

###

Experiment: Approximate solvent solubility screen (aliquot addition)
Type: physicochemical
Conditions: 40 °C, aqueous with cosolvent or surfactant or cyclodextrin, thermodynamic from solid; solvent: Water:Acetic Acid (80:20) v/v
parameter.measured: solubility

Reported solubility ( CC(=O)N[C@H]1[C@H]([C@H](O)[C@H](O)CO)OC(O)(C(=O)O)C[C@@H]1O (stereo partly shown) ) = > 213 mg/mL

###

Assay: 7 day stress stability, physical form by XRPD
Type: physicochemical
Details: 1 week under ambient conditions
parameter.measured: Physical form (XRPD) after stress

CC(=O)N[C@H]1[C@H]([C@H](O)[C@H](O)CO)OC(O)(C(=O)O)C[C@@H]1O (stereo partly shown) [Form 2, N-acetylneuraminic acid] : stable
CC(=O)N[C@H]1[C@H]([C@H](O)[C@H](O)CO)OC(O)(C(=O)O)C[C@@H]1O (stereo partly shown) [Form 5, N-acetylneuraminic acid] : stable

###

Test: Approximate solvent solubility screen (aliquot addition)
Type: physicochemical
Conditions: 40 °C, organic solvent or mixture, thermodynamic from solid; solvent: Dimethylsulfoxide
parameter.measured: solubility

Reported solubility ( CC(=O)N[C@H]1[C@H]([C@H](O)[C@H](O)CO)OC(O)(C(=O)O)C[C@@H]1O (stereo partly shown) [Sialic acid, N-acetylneuraminic acid] ) = > 301 mg/mL

###

Experiment: Approximate solvent solubility screen (aliquot addition)
Assay type: physicochemical
Settings: 40 °C, organic solvent or mixture, thermodynamic from solid; solvent: Nitromethane
parameter.measured: solubility

Reported solubility ( CC(=O)N[C@H]1[C@H]([C@H](O)[C@H](O)CO)OC(O)(C(=O)O)C[C@@H]1O (stereo partly shown) ) = < 6000 µg/mL

###

Assay: Approximate solvent solubility screen (aliquot addition)
Type: physicochemical
Conditions: 40 °C, organic solvent or mixture, thermodynamic from solid; solvent: Methylethyl ketone
parameter.measured: solubility

Reported solubility ( CC(=O)N[C@H]1[C@H]([C@H](O)[C@H](O)CO)OC(O)(C(=O)O)C[C@@H]1O (stereo partly shown) ) = < 5700 µg/mL

###

Assay: Approximate solvent solubility screen (aliquot addition)
Assay type: physicochemical
Settings: 40 °C, organic solvent or mixture, thermodynamic from solid; solvent: 1,4-Dioxane
parameter.measured: solubility

Reported solubility ( CC(=O)N[C@H]1[C@H]([C@H](O)[C@H](O)CO)OC(O)(C(=O)O)C[C@@H]1O (stereo partly shown) ) = < 4900 µg/mL

###

Assay: Approximate solvent solubility screen (aliquot addition)
Assay type: physicochemical
Conditions: 40 °C, organic solvent or mixture, thermodynamic from solid; solvent: Acetone:Ethyl Acetate (50:50) v/v
parameter.measured: solubility

Reported solubility ( CC(=O)N[C@H]1[C@H]([C@H](O)[C@H](O)CO)OC(O)(C(=O)O)C[C@@H]1O (stereo partly shown) [Sialic acid, N-acetylneuraminic acid] ) = < 4800 µg/mL

###

Assay: Approximate solvent solubility screen (aliquot addition)
Type: physicochemical
Conditions: 40 °C, organic solvent or mixture, thermodynamic from solid; solvent: 2-propanol
parameter.measured: solubility

Reported solubility ( CC(=O)N[C@H]1[C@H]([C@H](O)[C@H](O)CO)OC(O)(C(=O)O)C[C@@H]1O (stereo partly shown) ) = < 5000 µg/mL

###

Assay: Approximate solvent solubility screen (aliquot addition)
Type: physicochemical
Conditions: 40 °C, organic solvent or mixture, thermodynamic from solid; solvent: 2-Methyl THF
parameter.measured: solubility

Reported solubility ( CC(=O)N[C@H]1[C@H]([C@H](O)[C@H](O)CO)OC(O)(C(=O)O)C[C@@H]1O (stereo partly shown) ) = < 5200 µg/mL

###

Assay: PLM (morphology) of the solid forms
Type: physicochemical
parameter.measured: PLM (morphology), particle size

Consider the reported PLM (morphology), particle size for these compounds:
CC(=O)N[C@H]1[C@H]([C@H](O)[C@H](O)CO)OC(O)(C(=O)O)C[C@@H]1O (stereo partly shown) [Form 2, N-acetylneuraminic acid] : <30 μm
CC(=O)N[C@H]1[C@H]([C@H](O)[C@H](O)CO)OC(O)(C(=O)O)C[C@@H]1O (stereo partly shown) [Form 3, N-acetylneuraminic acid] : <30 μm
CC(=O)N[C@H]1[C@H]([C@H](O)[C@H](O)CO)OC(O)(C(=O)O)C[C@@H]1O (stereo partly shown) [Form 5, N-acetylneuraminic acid] : < 100 μm

// moving on: another record for PLM (morphology), particle size
Reported PLM (morphology), particle size ( CC(=O)N[C@H]1[C@H]([C@H](O)[C@H](O)CO)OC(O)(C(=O)O)C[C@@H]1O (stereo partly shown) [Form 1, N-acetylneuraminic acid] ) = <10 μm

###

Assay: Approximate solvent solubility screen (aliquot addition)
Type: physicochemical
Conditions: 40 °C, organic solvent or mixture, thermodynamic from solid; solvent: Toluene
parameter.measured: solubility

Reported solubility ( CC(=O)N[C@H]1[C@H]([C@H](O)[C@H](O)CO)OC(O)(C(=O)O)C[C@@H]1O (stereo partly shown) ) = < 5900 µg/mL

###

Test: Approximate solvent solubility screen (aliquot addition)
Format: physicochemical
Details: 40 °C, organic solvent or mixture, thermodynamic from solid; solvent: n-Heptane
parameter.measured: solubility

Reported solubility ( CC(=O)N[C@H]1[C@H]([C@H](O)[C@H](O)CO)OC(O)(C(=O)O)C[C@@H]1O (stereo partly shown) [Sialic acid, N-acetylneuraminic acid] ) = < 5300 µg/mL

###

Assay: 7 day stress stability, physical form by XRPD
Format: physicochemical
Conditions: 1 week at 80° C.
parameter.measured: Physical form (XRPD) after stress

CC(=O)N[C@H]1[C@H]([C@H](O)[C@H](O)CO)OC(O)(C(=O)O)C[C@@H]1O (stereo partly shown) [Form 2, N-acetylneuraminic acid] : stable
CC(=O)N[C@H]1[C@H]([C@H](O)[C@H](O)CO)OC(O)(C(=O)O)C[C@@H]1O (stereo partly shown) [An embodiment of Form 2, N-acetylneuraminic acid] : stable

###

Test: Approximate solvent solubility screen (aliquot addition)
Format: physicochemical
Conditions: 40 °C, organic solvent or mixture, thermodynamic from solid; solvent: Diisopropyl ether
parameter.measured: solubility

Reported solubility ( CC(=O)N[C@H]1[C@H]([C@H](O)[C@H](O)CO)OC(O)(C(=O)O)C[C@@H]1O (stereo partly shown) ) = < 4800 µg/mL
